settings: human gut metagenome, 24 h, 2 µM; also: call rule not given here
value_kind: Bacterial Biotransformation

Worked cases, Bacterial Biotransformation given:
[[record]]
compound = "COC(=O)Nc1nc2ccc(C(=O)c3ccccc3)cc2[nH]1"
result_value = "Compound metabolized"

[[record]]
compound = "C=CCN1CC[C@]23c4c5ccc(O)c4O[C@H]2C(=O)CC[C@@]3(O)[C@H]1C5"
result_value = "Compound NOT metabolized"

[[record]]
compound = "CCCc1nn(C)c2c(=O)[nH]c(-c3cc(S(=O)(=O)N4CCN(C)CC4)ccc3OCC)nc12.O=C(O)CC(O)(CC(=O)O)C(=O)O [SILDENAFIL CITRATE]"
result_value = "Compound NOT metabolized"

[[record]]
compound = "Cc1ccc(/C(=C\\CN2CCCC2)c2ccccn2)cc1"
result_value = "Compound NOT metabolized"

[[record]]
compound = "COCCc1ccc(OCC(O)CNC(C)C)cc1.COCCc1ccc(OCC(O)CNC(C)C)cc1.O=C(O)C(O)C(O)C(=O)O (stereo unspecified) [METOPROLOL TARTRATE]"
result_value = "Compound metabolized"


Indicate its recorded Bacterial Biotransformation; the compound in question is NC(CO)(CO)CO.O=C(c1ccccc1)c1ccc2n1CCC2C(=O)O (stereo unspecified) Compound metabolized

Indicate its recorded Bacterial Biotransformation; the compound in question is CN1CCN(CC/C=C2/c3ccccc3Sc3ccc(S(=O)(=O)N(C)C)cc32)CC1 Compound metabolized

Indicate its recorded Bacterial Biotransformation; the compound in question is Cc1ccnc2c1NC(=O)c1cccnc1N2C1CC1 Compound metabolized

====

conditions: human gut metagenome, 24 h, 2 µM
value_kind: Bacterial Biotransformation

[[record]]
compound = "CCCc1nn(C)c2c(=O)[nH]c(-c3cc(S(=O)(=O)N4CCN(C)CC4)ccc3OCC)nc12.O=C(O)CC(O)(CC(=O)O)C(=O)O [SILDENAFIL CITRATE]"
result_value = "Compound metabolized"

[[record]]
compound = "CC(C)NCC(O)COc1ccc(CCOCC2CC2)cc1 (stereo unspecified)"
result_value = "Compound NOT metabolized"

[[record]]
compound = "CN(C)CCC=C1c2ccccc2C=Cc2ccccc21"
result_value = "Compound metabolized"

[[record]]
compound = "CC[C@@H](CO)NC(=O)[C@@H]1C=C2c3cccc4c3c(cn4C)C[C@H]2N(C)C1.O=C(O)/C=C\\C(=O)O [METHYSERGIDE MALEATE]"
result_value = "Compound NOT metabolized"

[[record]]
compound = "CCCCc1nc(Cl)c(CO)n1Cc1ccc(-c2ccccc2-c2nn[nH]n2)cc1"
result_value = "Compound metabolized"

[[record]]
compound = "CC(Oc1c(Cl)cccc1Cl)C1=NCCN1 (stereo unspecified)"
result_value = "Compound NOT metabolized"


Indicate its recorded Bacterial Biotransformation; the compound in question is CN1C[C@H](C(=O)N[C@]2(C)O[C@@]3(O)[C@@H]4CCCN4C(=O)[C@H](Cc4ccccc4)N3C2=O)C=C2c3cccc4[nH]cc(c34)C[C@H]21.CN1C[C@H](C(=O)N[C@]2(C)O[C@@]3(O)[C@@H]4CCCN4C(=O)[C@H](Cc4ccccc4)N3C2=O)C=C2c3cccc4[nH]cc(c34)C[C@H]21.O=C(O)C(O)C(O)C(=O)O [ERGOTAMINE TARTRATE] Compound metabolized

Indicate its recorded Bacterial Biotransformation; the compound in question is CCOC(=O)[C@H](CCc1ccccc1)N[C@H]1CCc2ccccc2N(CC(=O)O)C1=O Compound metabolized

Indicate its recorded Bacterial Biotransformation; the compound in question is CCN(CC)CC#CCOC(=O)C(O)(c1ccccc1)C1CCCCC1.Cl (stereo unspecified) [OXYBUTYNIN CHLORIDE] Compound metabolized

Ref: ChEMBL document CHEMBL5724914
